assay-procedure: Population pharmacokinetic analysis of polymyxin B in renal transplant patients (plasma, HPLC-MS/MS, Phoenix NLME)
Assay type: in vivo, human
measurement-context: human, intravenous q 12 h, one-compartment PPK model, typical value at CrCL 22.2 ml/min, 151 plasma samples from 50 patients, read-out: CL, final model estimate (converted)
Description: This prospective study was approved by the Ethics Committee of the Second Xiangya Hospital, Central South University. Informed consent was obtained from all patients or legal representatives of the patients (No. ChiCTR1900022231). […] All patients accepted at least 3 days of polymyxin B infusion, and the administration interval of polymyxin B was 12 h with an infusion duration of 60–120 min. […] The limit of quantification was 0.03 mg/L. […]
Positions of bridges follow the written chain, without caps; N, C: chain ends. Non-standard residues stand in square brackets, D forms with d. Residues, ends and D or L forms follow the SMILES beside them. *: point of attachment. X1 = CC[C@H](C)CCCCC(=O)*; Dab = NCC[C@H](N)C(=O)O
readout-kind: clearance (mL/min)
One number for each entry, in mL/min.

CC[C@H](C)CCCCC(=O)N[C@@H](CCN)C(=O)N[C@H](C(=O)N[C@@H](CCN)C(=O)N[C@H]1CCNC(=O)[C@H]([C@@H](C)O)NC(=O)[C@H](CCN)NC(=O)[C@H](CCN)NC(=O)[C@H](CC(C)C)NC(=O)[C@@H](Cc2ccccc2)NC(=O)[C@H](CCN)NC1=O)[C@@H](C)O [polymyxin B] (X1-[Dab]T[Dab][Dab][Dab][dF]L[Dab][Dab]T; lactam 4-C) has a reported clearance of 19.7
